experiment: Cytostatic effects on NHDF cells in the anti-HCMV cytopathogenicity test; format: cell-based, human; conditions: human, concentration at which no visible cytostatic effects on NHDF cells are evident vs untreated cell control
property_name: CC50 at 6 days (µM)
Field: numeric (µM). Do not append units.

Consider the worked cases shown below.
COc1c(N2CCC3(CC2)CNC(=O)C3)c(F)cc2c(=O)c(C(=O)NCc3ccc(OC(F)(F)F)cc3C)cn(C3CC3)c12 [Example 34]    11
COc1ccc(CNC(=O)c2cn(CC(F)(F)F)c3c(OC)c(N4CCC(C(=O)O)CC4)c(F)cc3c2=O)c(Cl)c1 [Example 55]    16
CCOC(=O)C1CCN(c2c(F)cc3c(=O)c(C(=O)NCc4ccc(OC(F)(F)F)cc4Cl)cn(CC(F)(F)F)c3c2OC)CC1 [Example 3]    24
COc1c(N2CCC(C(=O)O)CC2)c(F)cc2c(=O)c(C(=O)NCc3ccc(C(F)(F)F)cc3C)cn(CC(F)(F)F)c12 [Example 54]    21

## Task Please give the measured CC50 at 6 days for this compound: CCOC(=O)C1CCN(c2c(F)cc3c(=O)c(C(=O)NCc4ccc(OC(F)(F)F)cc4C)cn(CC(F)(F)F)c3c2OC)CC1 [Example 2]
## Result 47
